assay: PSAC antagonists in infected red cells, primary screen, cell-based, P. falciparum Indochina, OD700, 2 h (AID 1155);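 further: lysis reports solute entry through the parasite surface anion channel PSAC; channel blockers reduce lysis of infected cells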; conditions: P. falciparum Indochina infected erythrocytes, osmotic lysis OD700; higher = more signal, called active from +8 up or from −8 down
z-score values, listed per item
Give your answer as a number; write no unit.

Use these answered entries as a reference point.
CO[C@H]1O[C@H](CO)[C@@H](OC(=O)Nc2ccc(C#N)cc2)[C@H](OC(=O)c2cc3ccccc3[nH]2)[C@H]1OC(=O)c1cc2ccccc2[nH]1 :: 0.178
O=C1[C@H]2[C@H]3[C@H](O)[C@H](O)CC(=NO[C@@H]4O[C@H](CO)[C@@H](O)[C@H](O)[C@H]4O)[C@@H]3CC[C@H]2C(=O)N1Cc1ccc2c(c1)OCO2 :: 0.373
CCOC(=O)NN=C1C[C@@H](O)[C@@H](O)[C@@H]2[C@@H]3C(=O)N(C4CCCCC4)C(=O)[C@@H]3CC[C@H]12 :: 0.323
C[C@@H](c1ccccc1)N1C(=O)[C@H]2[C@H]3[C@H](O)C=CC(=O)[C@@H]3CC[C@H]2C1=O :: 0.101
CCCCc1nc2c(c3c1C[C@H](C)OC3)CN(CCC(C)C)CC2 :: 0.977
CC(C)[Si]1(C(C)C)O[C@@H](c2ccccc2)c2cc(C3CC3)nc(-c3ccccc3)c21 :: 0.389
CCOC(=O)CCN1C(=O)[C@H]2[C@H]3[C@H](O)[C@H](O)CC(=NOC[C@@H](O)COCc4ccco4)[C@H]3CC[C@H]2C1=O :: -1.31
CC[C@@H](c1ccccc1)n1c(=O)n2n(c1=O)[C@H]1[C@H](O)[C@@H]3O[C@@H]3C(=NOCC=C(C)CCC=C(C)C)[C@H]1CC2 :: 0.719
CN(C)C(=O)[C@@]1(Cc2ccccc2)N=C(c2ccc(OCCCO)cc2)O[C@H]1c1ccccc1CN=[N+]=[N-] :: 1.15
COC(=O)[C@]1(CO)N=C(c2ccc(OCCCO)cc2)O[C@@H]1c1ccccc1N=[N+]=[N-] :: 2.32

Next item in the queue.
The reported value for "Cc1ccc(S(=O)(=O)N[C@@H]2COC(=O)[C@H](C)COC(=O)CC=C[C@H]2C)cc1" in terms of z-score is 0.408

====

composite z-score values, listed per item
experiment: small-molecule microarray binders of probe aWnt5a, primary screen, biochemical, biotinylated probe, 635/667 nm fluorescence (AID 1113); conditions: higher = more signal;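 further: score merges 667 nm fluorescence intensity with signal-to-noise per printed feature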
Give your answer as a number; write no unit.

Use these answered entries as a reference point.
Cc1ccc(F)cc1S(=O)(=O)N[C@@H]1CCN(Cc2ccc(CC(C)C)cc2)C1 :: -0.23
CO[C@@H]1COC(=O)CC=C[C@@H](C)[C@@H]2C=C[C@@H](O)[C@@H](COC(=O)CC=C[C@H]1C)O2 :: -0.252
COC(=O)[C@@]1(Cc2ccc(F)cc2)[C@H]2c3cc(C(=O)N(C)C)n(Cc4ccc(OC)c(OC)c4)c3C[C@H]2CN1C(=O)c1ccccc1 :: 0.0833
CO[C@H]([C@@H](C)[C@H](OC)c1ccccc1)[C@H](C)[C@@H](OC)[C@H](C)C(C)=O :: 0.0101

The reported value for "CO[C@@H]1COC(=O)CC=C[C@@H](C)[C@@H]2C=C[C@H](O)[C@@H](COC(=O)[C@H](C)NC(=O)CC=C[C@H]1C)O2" in terms of composite z-score is -0.103

The reported value for "CO[C@@H]1COC(=O)CC=C[C@@H](C)COC(=O)[C@H](COCc2ccccc2)NC(=O)CC=C[C@H]1C" in terms of composite z-score is -0.0721

The reported value for "CCCC=C(CCC)[C@@H](NC(=O)c1ccc(-c2ccccc2)cc1)c1ccc(C(=O)OC)cc1" in terms of composite z-score is 0.194

====

z-score values, listed per item
experiment: Plasmodium falciparum growth inhibition, primary screen, strain 3D7, DAPI fluorescence, 100 nL (AID 1184);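 further: parasites grown inside human red blood cells in medium with human serum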; conditions: P. falciparum 3D7 growth, 3 d, higher = more signal
Give your answer as a number; write no unit.

Use these answered entries as a reference point.
COC(=O)[C@@]1(Cc2ccc(F)cc2)[C@@H]2C(=CC(=O)[C@H]2CC(=O)C(=O)N(C)C)CN1C(=O)c1ccccc1 :: -1.35
CC(CCN1CCc2nc(-c3ccccc3)c(-c3ccccc3)cc2C1)=NOC(C)CN1CCCCc2nc(C)c(C)cc21 (configuration not stated) :: 0.0201
CCOC(=O)CCN1C(=O)[C@H]2[C@H]3[C@H](O)[C@H](O)CC(=NNC(=O)OCc4ccc(OC)cc4)[C@@H]3CC[C@H]2C1=O :: -0.688
CN1C(=O)[C@@]2(CCC(=O)OC(C)(C)C)N=C(c3ccc(OCCCO)cc3)O[C@H]2c2ccccc21 :: -2.1
C#CCCCON=C1C[C@@H](O)[C@@H](O)[C@@H]2[C@@H]3C(=O)N(CCC(=O)OCC)C(=O)[C@@H]3CC[C@@H]12 :: 0.165
C#CCCCON=C1C[C@@H](O)[C@@H](O)[C@@H]2[C@@H]3C(=O)N(c4cccc(Oc5ccccc5)c4)C(=O)[C@@H]3CC[C@@H]12 :: -1.96

Next item in the queue.
The reported value for CC(C)N1CC=CC23O[C@@H]4C=CCCOC(=O)C4[C@H]2C(=O)N(CCCCCCO)[C@@H]3C1=O (some centres not stated) in terms of z-score is 0.0012

====

z-score values, listed per item
experiment: MM1S cell viability effects, profiling panel, calcein-AM fluorescence, 48 h, basal (AID 1165); details: higher = more signal;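 further: viability of MM1S multiple myeloma cells under basal unstimulated conditions; test concentration not given here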

The reported value for "O=C1C[C@@H](O)[C@@H](O)[C@@H]2[C@@H]3C(=O)N(c4ccc(F)cc4F)C(=O)[C@@H]3CC[C@@H]12" in terms of z-score is -0.701

The reported value for "O=C1C2=CC[C@H]3C(=O)N(Cc4ccc5c(c4)OCO5)C(=O)[C@H]3[C@H]2[C@H](O)[C@@H]2O[C@H]12" in terms of z-score is 0.351

The reported value for "CCOC(=O)CCN1C(=O)[C@H]2[C@H]3[C@H](O)[C@H](O)CC(=NOC[C@@H](O)COCc4ccco4)[C@@H]3CC[C@H]2C1=O" in terms of z-score is 0.366

The reported value for "CCOC(=O)C[C@H]1[C@H](OC(=O)c2cc3ccccc3oc2=O)[C@@H](NC(=O)c2ccc3ccccc3n2)c2cc(OCCCO)ccc2N1C(=O)c1ccccc1" in terms of z-score is 0.204

The reported value for "CCN1C(=O)[C@H]2[C@H]3[C@H](O)[C@H](O)CC(=NO[C@@H]4O[C@H](CO)[C@@H](O)[C@H](O)[C@H]4O)[C@@H]3CC[C@H]2C1=O" in terms of z-score is -0.944

The reported value for "CCCNC(=O)OC[C@H]1O[C@H](CCON=C2[C@H]3CCn4c(=O)n(-c5ccccc5)c(=O)n4[C@H]3[C@H](O)[C@@H]3O[C@H]23)C=C[C@@H]1Oc1ccc(OC)cc1" in terms of z-score is -1.83

====

assay: small-molecule microarray binders of probe aShh, primary screen, biochemical, biotinylated probe, 635/667 nm fluorescence (AID 1114); details: higher = more signal;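 further: probe is biotin-labelled aShh protein from a stem cell growth factor screen; measures binding of labelled protein to compounds printed on the slide; score merges feature fluorescence at 667 nm with signal-to-noise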
// classify(record): look up composite z-score in ranges low (below -0.1), moderate (-0.1 to below 0.1), high (0.1 or more)

Worked examples follow.
O=C(NN=C1C[C@@H](O)[C@@H](O)[C@@H]2[C@@H]3C(=O)N(c4cccc(Oc5ccccc5)c4)C(=O)[C@@H]3CC[C@H]12)OCc1ccccc1 :: high
CC(CCN1CCc2nc(-c3ccccc3)c(-c3ccccc3)cc2C1)=NO[C@@H](C)c1cn([C@H](CO)Cc2ccccc2)nn1 :: low
C=CCN1C(=O)[C@]2(O[C@H](CCn3cc(CCO)nn3)[C@@H]([Si](C)(C)c3ccc(OC)cc3)[C@@H]2C)c2cc(N3CCOC3=O)ccc21 :: moderate

Category lookup for the compound "CCCCc1nc2c(c3c1C[C@H](C)OC3)CN(CCC(C)C)CC2"
low

Category lookup for the compound "C=CCOC(=O)[C@H]1[C@@H]2C(=O)O[C@@H](c3ccccc3)[C@@H](c3ccccc3)N2[C@@H](c2ccc(OCCOC(=O)[C@H]3C[C@H]4C(=O)N5CCC[C@H]5C(=O)N4[C@H]3c3cccc(OCCO)c3)cc2)[C@]12C(=O)Nc1ccc(I)cc12"
high

Category lookup for the compound "COc1ccc(-c2nc3c(c4c2C[C@H](C)OC4)CN(CCC(C)C)CC3)cc1"
high

====

z-score values, listed per item
experiment: Plasmodium falciparum growth inhibition, primary screen, strain 3D7, DAPI fluorescence, 100 nL (AID 1184);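 further: parasites grown inside human red blood cells in medium with human serum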; conditions: P. falciparum 3D7 growth, 3 d, higher = more signal

Use these answered entries as a reference point.
C[C@H](c1ccccc1)N1C(=O)[C@H]2[C@@H]3C(=CC[C@H]2C1=O)C(=O)[C@H]1O[C@H]1[C@H]3O :: -1.23
CC(=O)C[C@H](O)[C@@H](NC(=O)OC(C)(C)C)C(C)C :: -1.24
CO[C@@H]1COC(=O)CC=C[C@@H](C)[C@H](OC)COC(=O)[C@H](COCc2ccccc2)NC(=O)CC=C[C@H]1C :: -0.17
C#C[C@@H](CC)O[Si](C#Cc1ccc(Oc2ccccc2)cc1)(C(C)C)C(C)C :: -0.968

Next item in the queue.
The reported value for "CC(CCC(=O)OC[C@H]1O[C@H](C#Cc2ccccc2)C=C[C@@H]1Oc1ccc(C)cc1)=NO[C@@H](C)c1cn([C@H](CO)Cc2ccccc2)nn1" in terms of z-score is -1.02

Where these numbers come from: PubChem BioAssay
